Conditions: in isobutanol, 293.15 K
measured.metric: solubility (mole fraction)

Request the reported solubility (mole fraction) associated with O=c1[nH]cc(F)c(=O)[nH]1 0.000854
